# tested-target: UniProt Q96PD7
# Sequence (Q96PD7 whole entry): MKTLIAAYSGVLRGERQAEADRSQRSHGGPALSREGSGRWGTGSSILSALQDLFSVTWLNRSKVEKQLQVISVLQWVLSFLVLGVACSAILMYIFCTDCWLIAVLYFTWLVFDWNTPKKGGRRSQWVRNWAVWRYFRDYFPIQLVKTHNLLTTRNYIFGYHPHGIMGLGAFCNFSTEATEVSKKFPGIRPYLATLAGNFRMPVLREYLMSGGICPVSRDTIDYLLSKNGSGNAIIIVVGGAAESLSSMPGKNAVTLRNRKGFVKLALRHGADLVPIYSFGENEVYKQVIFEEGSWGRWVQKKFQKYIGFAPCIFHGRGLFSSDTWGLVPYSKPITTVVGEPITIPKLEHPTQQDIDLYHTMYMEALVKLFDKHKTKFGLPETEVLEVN
# test-name: DGAT2 Enzymatic Activity Assay
# protocol-conditions: read-out: Human DGAT2 IC50; hDGAT2 membrane prep from Sf-9 cells; 13C18-triolein product by LC/MS/MS
One threshold, 30 nM, splits the recorded IC50 values: lower ones are Satisfied, equal or higher ones are Not satisfied.

Exercise: A record lists CC1(NC(=O)c2nc3ccc(Oc4ncc(Cl)cc4OCC(F)F)nc3n2CC(F)F)CCS(=O)(=O)CC1 [Example 54] . Is its IC50 below 30 nM?
Key: Satisfied

Exercise: A record lists Cn1c(C(=O)NC2(C)CCS(=O)(=O)CC2)nc2cnc(Oc3ncc(F)cc3OCC(F)(F)F)cc21 [Example 68] . Is its IC50 below 30 nM?
Key: Satisfied

Exercise: A record lists Cn1c(C(=O)NC2(C)CCS(=O)(=O)CC2)nc2cnc(Oc3nccnc3OCC(F)(F)F)cc21 [Example 69] . Is its IC50 below 30 nM?
Key: Not satisfied

Exercise: A record lists Cc1cnc(Oc2ccc3nc(C(=O)NC4(C)CCS(=O)(=O)CC4)n(C)c3n2)c(OCC(F)F)c1 [Example 37] . Is its IC50 below 30 nM?
Key: Satisfied

Exercise: A record lists Cn1c(C(=O)NC2(C)CS(=O)(=O)C2)nc2cnc(Oc3ncc(F)cc3OCC(F)F)cc21 [Example 71] . Is its IC50 below 30 nM?
Key: Not satisfied

Exercise: A record lists Cc1nc2nc(C(=O)NC3(C)CCS(=O)(=O)CC3)n(C)c2cc1Oc1ncc(F)cc1OCC(F)(F)F [Example 87] . Is its IC50 below 30 nM?
Key: Satisfied

Now for another entry.
Exercise: A record lists Cn1c(C(=O)NC2(C)CS(=O)(=O)C2)nc2cnc(Oc3ncc(Cl)cc3OCC(F)F)cc21 [Example 70] . Is its IC50 below 30 nM?
Key: Satisfied
